tested on: Plasmodium falciparum NF54 stage V gametocytes; experiment: viability index relative to DMSO control (fraction); higher = less gametocyte killing; details: 2.5 µM, library set: Broad Institute DOS, incubation time: 72 h
The full ranking holds about 9,900 compounds; the median of “viability index relative to DMSO control” is about 1, and the lowest 2% start at about 0.85. This is one part of a sample in which the lowest values are shown more often than they occur.
viability index strictly under 1 means 1; at 1 or over means -1.

# example entries with known answers
>>> answer_label("OC[C@@H]1[C@H](c2ccc(-c3ccc(F)cc3)cc2)[C@H](CNC2CCCC2)N1CCC(F)(F)F")
1
>>> answer_label("COc1ccc2c3c([C@H](CO)N(Cc4nccs4)C[C@]33CCN(CC4CCCC4)CC3)n(C)c2c1")
1
>>> answer_label("COc1ccc2c3c([C@H](CO)N(CC4CCOCC4)C[C@]33CN(Cc4nccs4)C3)n(C)c2c1")
-1
>>> answer_label("COCC(=O)N1CC(=O)N2[C@H](CO)[C@@H](c3ccc(-c4ccccc4F)cc3)[C@@H]2C1")
-1
>>> answer_label("COc1ccc(S(=O)(=O)N(C)C[C@H]2Oc3c(NC(=O)c4nc5ccccc5s4)cccc3C(=O)N([C@H](C)CO)C[C@H]2C)cc1")
-1

Asked: Dear reviewer, please state whether O=C(C[C@@H]1CC[C@@H]2[C@H](COC[C@@H](O)CN2C(=O)Nc2cccc(F)c2)O1)NCCCN1CCOCC1 has viability index strictly beneath 1.
Given back: -1

Asked: Is it true that viability index reported for CO[C@@H]1CN(C)C(=O)c2cc(NS(=O)(=O)CC(F)(F)F)ccc2OC[C@H](C)NC[C@@H]1C is less than 1?
Given back: -1

Asked: Criterion: viability index strictly below 1. Is it met by CC(C)NC(=O)Nc1cccc2c1O[C@H](CN(C)C(=O)Nc1ccccc1)[C@H](C)CN([C@@H](C)CO)C2=O ?
Given back: 1

Asked: viability index under 1? Item: C[C@@H]1CN([C@@H](C)CO)C(=O)CCCn2cc(nn2)CO[C@@H]1CN(C)S(=O)(=O)c1cn(C)cn1
Given back: -1

Asked: I wonder whether CC(C)NC(=O)Nc1cccc2c1O[C@@H](CN(C)C(=O)Nc1ccccc1)[C@@H](C)CN([C@@H](C)CO)C2=O has viability index below 1. Can you tell?
Given back: -1

Asked: Strictly below 1: is that where viability index of OC[C@@H]1[C@H](c2ccc(-c3ccc(F)cc3)cc2)[C@@H](CNC2CCCC2)N1CCC(F)(F)F sits?
Given back: 1

Asked: Determine whether this molecule shows viability index lower than 1 (ties excluded): C[C@@H]1CCCCO[C@@H](CN(C)CC2CCCCC2)[C@H](C)CN([C@@H](C)CO)C(=O)c2cc(NS(C)(=O)=O)ccc2O1
Given back: -1

* * *

tested on: Plasmodium falciparum NF54 stage V gametocytes; experiment: viability index relative to DMSO control (fraction); higher = less gametocyte killing; conditions: 2.5 µM, library set: Broad Institute DOS, incubation time: 72 h
In all, about 9,900 compounds were measured (“viability index relative to DMSO control”: median about 1, lowest 2% from about 0.85 on). The sample as a whole holds a higher share of the lowest values than the screen did.
experimental readout: viability index
Number only, no unit.

>>> observed_result("Cc1noc(C)c1S(=O)(=O)N(C)C[C@@H]1OCCCC[C@@H](C)Oc2ccc(N(C)C)cc2C(=O)N([C@@H](C)CO)C[C@@H]1C")
1.08

Asked: Tell me viability index of COc1ccc2c3c([nH]c2c1)[C@H](CO)N(C[C@]31CCN(Cc2ccncc2)CC1)C(=O)CC1CC1 when tested on Plasmodium falciparum NF54 stage V gametocytes.
Given back: 0.934

Asked: Enter viability index (test system Plasmodium falciparum NF54 stage V gametocytes) for O=C(c1ccccn1)N1CC2(C1)[C@@H](c1ccccc1)[C@@H](CO)N2C(=O)C1CCCCC1
Given back: 1.04

Asked: Check Plasmodium falciparum NF54 stage V gametocytes data and give viability index for Cc1ccc(S(=O)(=O)Nc2cccc3c2O[C@@H](CN(C)C(=O)Nc2ccc(C(F)(F)F)cc2)[C@@H](C)CN([C@H](C)CO)C3=O)cc1 .
Given back: 1.08

Asked: Give reported viability index for C[C@H]1CN([C@@H](C)CO)C(=O)c2c(c3ccccc3n2C)-c2ccccc2CO[C@@H]1CN(C)C(=O)NC1CCCCC1 (Plasmodium falciparum NF54 stage V gametocytes)
Given back: 1.04

Asked: Using Plasmodium falciparum NF54 stage V gametocytes as the test system, report measured viability index of CC(C)C#Cc1ccc([C@@H]2[C@H](CO)N3C(=O)CN(C(=O)Cc4ccccc4)C[C@@H]23)cc1 .
Given back: 1.1

Asked: Fill: viability index (Plasmodium falciparum NF54 stage V gametocytes) for this compound C[C@H](CO)N1C[C@H](C)[C@H](CN(C)C(=O)Nc2ccc(C(F)(F)F)cc2)Oc2ccc(NS(=O)(=O)c3ccc(Cl)cc3)cc2CC1=O
Given back: 1.01

Asked: Report measured viability index on Plasmodium falciparum NF54 stage V gametocytes; entry: C[C@H](CO)N1C[C@H](C)[C@@H](CN(C)C(=O)Nc2ccc3c(c2)OCO3)Oc2c(NC(=O)c3nc4ccccc4s3)cccc2C1=O
Given back: 1.01

Asked: Name the recorded viability index of CC(C)C#Cc1ccc([C@@H]2[C@@H](CO)N3C(=O)CN(C(=O)Cc4ccccc4)C[C@@H]23)cc1 , assay system Plasmodium falciparum NF54 stage V gametocytes.
Given back: 1.07

Asked: Using Plasmodium falciparum NF54 stage V gametocytes as the test system, report measured viability index of Cc1noc(C)c1S(=O)(=O)N(C)C[C@@H]1OCCCC[C@@H](C)Oc2ccc(N(C)C)cc2C(=O)N([C@@H](C)CO)C[C@H]1C .
Given back: 0.635

Asked: Quote Plasmodium falciparum NF54 stage V gametocytes viability index for entry CC(C)C#Cc1ccc([C@H]2[C@H](CO)N3C(=O)CN(C(=O)Cc4ccccc4)C[C@@H]23)cc1 .
Given back: 1.08

Asked: Find the measured viability index of COCC(=O)Nc1ccc2c(c1)C(=O)N(C)C[C@@H](OC)[C@H](C)CN(CCc1ccccc1)[C@H](C)CO2 with Plasmodium falciparum NF54 stage V gametocytes as test system.
Given back: 1.05

Asked: Write down the reported viability index (system: Plasmodium falciparum NF54 stage V gametocytes) of CC(C)C#Cc1ccc([C@@H]2[C@@H](CO)N3C(=O)CN(C(=O)Cc4ccccc4)C[C@H]23)cc1
Given back: 1.04

Asked: Name the value of viability index reported for CC(C)C#Cc1ccc([C@H]2[C@@H](CO)N3C(=O)CN(C(=O)Cc4ccccc4)C[C@@H]23)cc1 when tested on Plasmodium falciparum NF54 stage V gametocytes.
Given back: 1.07

Asked: Please tell me the measured viability index for C/C=C/c1ccc([C@H]2[C@H]3CN(S(=O)(=O)c4ccccc4)CC(=O)N3[C@H]2CO)cc1 ; system: Plasmodium falciparum NF54 stage V gametocytes.
Given back: 1.03

The measured values listed here are drawn from the supplement of paper PMC4723716.
